# TARGET_OR_SYSTEM: CyclinE/cdk2 (Homo sapiens)
# ASSAY_NOTES: CyclinE/cdk2 protein kinase assay (histone H1 phosphorylation, immunopurified complex from HeLa)
# CONDITION_SET: read-out: IC50 CyclinE cdk2; Table 2; replicate experiments
METRIC_NAME: pIC50
Bear in mind: pIC50 is minus log10 of a mol/L concentration; give just that figure.

// query Given "CC(C)n1cnc2c(NCc3ccc(-c4cccs4)cc3)nc(N[C@H]3CC[C@H](N)CC3)nc21" , state its recorded pIC50.
// result 7.15

---

# TARGET_OR_SYSTEM: CyclinA/cdk2 (Homo sapiens, UniProt P24941)
# ASSAY_NOTES: CyclinA/cdk2 protein kinase assay (histone H1 phosphorylation, immunopurified complex from HeLa)
# CONDITION_SET: read-out: IC50 CyclinA cdk2; Table 2; replicate experiments
METRIC_NAME: IC50 (µM)
The figure you give is taken to be in µM; do not add the unit.

// query Can you share its IC50? I mean this compound: "CC(=O)N[C@H]1CC[C@H](Nc2nc(NCc3ccc(-c4ccccn4)cc3)c3ncn(C(C)C)c3n2)CC1"
// result 10

// query Next entry: "CC(=O)N[C@@H](C)CNc1nc(NCc2ccc(-c3ccccc3)cc2)c2ncn(C(C)C)c2n1"
// result 10

// query Next: "CC(C)n1cnc2c(NCc3ccc(-c4cccs4)cc3)nc(N[C@H]3CC[C@H](N)CC3)nc21"
// result 0.2

---

# TARGET_OR_SYSTEM: CyclinB/cdk1 (Homo sapiens)
# Construct: Monoclonal antibody against cyclinB (GNS1) is added to the supernatant; endogenous in cells
# Sequence (P06493 whole entry): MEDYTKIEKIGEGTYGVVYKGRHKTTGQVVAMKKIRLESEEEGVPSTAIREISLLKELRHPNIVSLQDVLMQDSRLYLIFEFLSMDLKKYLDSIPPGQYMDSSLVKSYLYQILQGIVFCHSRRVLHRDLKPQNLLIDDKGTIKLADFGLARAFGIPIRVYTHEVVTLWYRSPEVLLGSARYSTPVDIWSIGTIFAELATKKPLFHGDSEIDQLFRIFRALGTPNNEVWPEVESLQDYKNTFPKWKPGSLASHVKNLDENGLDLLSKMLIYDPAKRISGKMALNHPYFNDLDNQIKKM
# Sequence (P14635 whole entry partner): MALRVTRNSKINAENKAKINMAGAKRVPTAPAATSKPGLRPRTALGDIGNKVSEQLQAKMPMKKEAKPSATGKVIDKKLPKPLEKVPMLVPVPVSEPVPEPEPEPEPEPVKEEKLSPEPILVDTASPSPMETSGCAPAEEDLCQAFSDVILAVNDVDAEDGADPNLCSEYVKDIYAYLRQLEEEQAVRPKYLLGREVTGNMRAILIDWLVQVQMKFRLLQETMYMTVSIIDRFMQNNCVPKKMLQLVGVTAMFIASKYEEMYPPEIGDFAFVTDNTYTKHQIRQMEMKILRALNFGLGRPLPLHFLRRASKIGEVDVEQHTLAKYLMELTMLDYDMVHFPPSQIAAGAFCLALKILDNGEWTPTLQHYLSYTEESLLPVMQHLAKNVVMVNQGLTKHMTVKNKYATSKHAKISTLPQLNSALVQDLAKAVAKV
# ASSAY_NOTES: CyclinB/cdk1 protein kinase assay (histone H1 phosphorylation, immunopurified complex from HeLa)
# CONDITION_SET: Table 2; replicate experiments
METRIC_NAME: IC50 (µM)
Report the figure in µM without appending any unit label.

// query Need IC50, item CC(=O)N[C@H]1CC[C@H](Nc2nc(NCc3ccc(-c4ccc(C)cc4)cc3)c3ncn(C(C)C)c3n2)CC1 [Compound 97]
// result 10
